Biological target: UBE2S; also: test concentration or dose not given here
Assay: reporter assay of Huesken 2005
Settings: siRNA
Oligonucleotides are written 5' to 3', each unit as a sugar letter and its base; * is a phosphorothioate linkage, no mark a phosphodiester; rarer units and linkages stand in square brackets, end groups in braces. Plain capitals give the bases only. d = 2'-deoxy (DNA); r = 2'-OH (RNA)
value-type: normalised inhibition (eCFP-eYFP dual reporter) (%)
Form entry: value (%) — number only.

// known answers, use as guide
substance: sense rUrCrCrArCrCrCrUrArArCrCrCrCrGrArGrUrCdTdT / antisense rGrArCrUrCrGrGrGrGrUrUrArGrGrGrUrGrGrAdTdC
unit-spec: %
measured-result: 39.4
--
substance: sense rCrCrCrUrGrArGrGrGrGrArCrCrCrCrArUrArUdTdT / antisense rArUrArUrGrGrGrGrUrCrCrCrCrUrCrArGrGrGdCdC
unit-spec: %
measured-result: 46.5

Problem: Need normalised inhibition (eCFP-eYFP dual reporter) of sense rGrGrGrCrCrCrUrGrGrCrCrArGrUrGrGrCrArCdTdT / antisense rGrUrGrCrCrArCrUrGrGrCrCrArGrGrGrCrCrCdGdA , thanks.
Solution: 43

Problem: Need normalised inhibition (eCFP-eYFP dual reporter) of sense rCrCrArCrCrCrArArGrGrGrCrUrArCrUrUrCrCdTdT / antisense rGrGrArArGrUrArGrCrCrCrUrUrGrGrGrUrGrGdGdG , thanks.
Solution: 54.7

Problem: Need normalised inhibition (eCFP-eYFP dual reporter) of sense rArCrUrGrArCrCrGrCrArGrArCrCrCrArCrCrCdTdT / antisense rGrGrGrUrGrGrGrUrCrUrGrCrGrGrUrCrArGrUdGdT , thanks.
Solution: 43.6

Problem: Need normalised inhibition (eCFP-eYFP dual reporter) of sense rUrGrGrCrGrArGrArUrCrUrGrCrGrUrCrArArCdTdT / antisense rGrUrUrGrArCrGrCrArGrArUrCrUrCrGrCrCrAdTdT , thanks.
Solution: 85.6
